target: MST4 (human)
assay.procedure: radiometric filter-binding kinase assay, Kinase HotSpot
applied.conditions: compound 0.5 µM; ATP 10 µM
measurement.name: residual activity
Show the value, then the unit it is measured in.

Q: Which residual activity value belongs to CC(C)[C@H](CO)Nc1nc(Nc2cc(N)cc(Cl)c2)c2ncn(C(C)C)c2n1 ?
Result: 67.8%

Q: Which residual activity value belongs to Cn1sc(=O)n(Cc2ccccc2)c1=O ?
Result: 98.1%

Q: Which residual activity value belongs to COc1cc2ncc(-c3ccccc3)nc2cc1OC ?
Result: 109%

###

target: MATK (human)
assay.procedure: radiometric filter-binding kinase assay, Kinase HotSpot
applied.conditions: compound 0.5 µM; ATP 10 µM
measurement.name: residual activity (%)
Write the number in % without appending the unit.

# count of solved cases: 10
{"columns": ["compound", "residual activity (%)"],
 "data": [
  ["Nc1nccc(-c2c(-c3ccc(F)cc3)ncn2C2CCNCC2)n1", 99.5],
  ["O=C(O)/C=C/c1cc(Br)c(Br)c(Br)c1Br", 87.2],
  ["Cn1nc2c3c(cccc31)C(=O)c1ccccc1-2", 88],
  ["COc1cc2ncc(-c3ccccc3)nc2cc1OC", 101],
  ["CCn1cnc2c(Nc3cccc(Cl)c3)nc(N[C@@H]3CCCC[C@@H]3N)nc21", 88.3],
  ["Cn1sc(=O)n(Cc2ccccc2)c1=O", 95.3],
  ["CC(C)c1nn(-c2c(Cl)cccc2Cl)c2nc(Cc3ccc(OCCO)cc3)nc(O)c12", 91.1],
  ["O=C1NC(=O)C(c2cn(CCCO)c3ncccc23)=C1c1cnccn1", 95.5],
  ["O=C(CCCc1ccc(-c2ccccc2F)cc1)Nc1ccc(O)cc1", 92.2],
  ["O=C1Nc2ccccc2/C1=C1/Nc2ccccc2/C1=N\\OCCC(O)CO (configuration not stated)", 101]
]}

Q: Which residual activity value belongs to COc1ccc(OC)c2c(=S)c3ccccc3[nH]c12 ?
Result: 89.5

Q: Which residual activity value belongs to CC(=O)O/N=C1\C(=C2\C(=O)Nc3cc(Br)ccc32)Nc2ccccc21 ?
Result: 93

Q: Which residual activity value belongs to Nc1nnc2[nH]c3ccccc3nc1-2 ?
Result: 91.9

Q: Which residual activity value belongs to COc1ccc(CNC(=O)Nc2ncc([N+](=O)[O-])s2)cc1 ?
Result: 96.6

Q: Which residual activity value belongs to CN([C@@H](Cc1ccc(OS(=O)(=O)c2cccc3cnccc23)cc1)C(=O)N1CCN(c2ccccc2)CC1)S(=O)(=O)c1cccc2cnccc12 ?
Result: 94.8

###

target: NUAK1 (human)
assay.procedure: radiometric filter-binding kinase assay, Kinase HotSpot
applied.conditions: compound 0.5 µM; ATP 10 µM
measurement.name: residual activity (%)
Write the number in % without appending the unit.

{"columns": ["entry.smiles", "display.unit", "residual activity"],
 "data": [
  ["COc1cc2ncc(-c3ccccc3)nc2cc1OC", "%", 85.6]
]}

Q: Which residual activity value belongs to Oc1ccc(Nc2nc(-c3ccc(Cl)cc3)cs2)cc1 ?
Result: 90.7

Q: Which residual activity value belongs to Cn1cnc2cc3c(Nc4cccc(Br)c4)ncnc3cc21 ?
Result: 90.5

Q: Which residual activity value belongs to Nc1nccc(-c2c(-c3ccc(F)cc3)ncn2C2CCNCC2)n1 ?
Result: 98.4

Q: Which residual activity value belongs to O=C(Nc1cccc(Nc2cc(Nc3cccc(C(F)(F)F)c3)ncn2)c1)C1CC1 ?
Result: 102

Q: Which residual activity value belongs to CN([C@@H](Cc1ccc(OS(=O)(=O)c2cccc3cnccc23)cc1)C(=O)N1CCN(c2ccccc2)CC1)S(=O)(=O)c1cccc2cnccc12 ?
Result: 97.5

Q: Which residual activity value belongs to O=C1NC(=O)/C(=C\c2ccc3nccnc3c2)S1 ?
Result: 92.8

Q: Which residual activity value belongs to O=C(O)/C=C/c1cc(Br)c(Br)c(Br)c1Br ?
Result: 87.6

Q: Which residual activity value belongs to COc1cc2ncnc(N3CCN(C(=O)Nc4ccc(Oc5ccccc5)cc4)CC3)c2cc1OC ?
Result: 88.8

Q: Which residual activity value belongs to O=C1Cc2c([nH]c3ccc(Br)cc23)-c2ccccc2N1 ?
Result: 14.6

Q: Which residual activity value belongs to Cc1nc2cc3nc(-c4cccs4)cnc3cc2n1C ?
Result: 95.3

###

target: MAPK11 (human)
assay.procedure: radiometric filter-binding kinase assay, Kinase HotSpot
applied.conditions: compound 0.5 µM; ATP 10 µM
measurement.name: residual activity (%)
Write the number in % without appending the unit.

# count of solved cases: 4
{"columns": ["compound", "display.unit", "residual activity"],
 "data": [
  ["Cn1nc2c3c(cccc31)C(=O)c1ccccc1-2", "%", 109],
  ["O=C1NC(=O)/C(=C\\c2ccc3nccnc3c2)S1", "%", 99.2],
  ["Cc1nc2cc3nc(-c4cccs4)cnc3cc2n1C", "%", 101],
  ["O=C1Nc2ccccc2/C1=C1/Nc2ccccc2/C1=N\\OCCC(O)CO (stereo not given)", "%", 95.2]
]}

API: the following record is the query input.
Q: Which residual activity value belongs to Cn1sc(=O)n(Cc2ccccc2)c1=O ?
Result: 97.2

###

target: MAP3K3 (human)
assay.procedure: radiometric filter-binding kinase assay, Kinase HotSpot
applied.conditions: compound 0.5 µM; ATP 10 µM
Attribute: residual activity
Write the number in % without appending the unit.

# count of solved cases: 3
{"columns": ["entry.smiles", "display.unit", "residual activity"],
 "data": [
  ["CC(C)c1nn(-c2c(Cl)cccc2Cl)c2nc(Cc3ccc(OCCO)cc3)nc(O)c12", "%", 110],
  ["O=C1NC(=O)C(c2c[nH]c3ccccc23)=C1c1c[nH]c2ccccc12", "%", 127],
  ["O=C1NC(=O)C(c2cn(CCCO)c3ncccc23)=C1c1cnccn1", "%", 88.3]
]}

API: the following record is the query input.
Q: Which residual activity value belongs to O=C1Nc2ccccc2/C1=C1\Nc2ccccc2\C1=N/O ?
Result: 94.4

###

target: EPHA5 (human) (UniProt P54756)
Sequence (P54756 whole entry, looked up): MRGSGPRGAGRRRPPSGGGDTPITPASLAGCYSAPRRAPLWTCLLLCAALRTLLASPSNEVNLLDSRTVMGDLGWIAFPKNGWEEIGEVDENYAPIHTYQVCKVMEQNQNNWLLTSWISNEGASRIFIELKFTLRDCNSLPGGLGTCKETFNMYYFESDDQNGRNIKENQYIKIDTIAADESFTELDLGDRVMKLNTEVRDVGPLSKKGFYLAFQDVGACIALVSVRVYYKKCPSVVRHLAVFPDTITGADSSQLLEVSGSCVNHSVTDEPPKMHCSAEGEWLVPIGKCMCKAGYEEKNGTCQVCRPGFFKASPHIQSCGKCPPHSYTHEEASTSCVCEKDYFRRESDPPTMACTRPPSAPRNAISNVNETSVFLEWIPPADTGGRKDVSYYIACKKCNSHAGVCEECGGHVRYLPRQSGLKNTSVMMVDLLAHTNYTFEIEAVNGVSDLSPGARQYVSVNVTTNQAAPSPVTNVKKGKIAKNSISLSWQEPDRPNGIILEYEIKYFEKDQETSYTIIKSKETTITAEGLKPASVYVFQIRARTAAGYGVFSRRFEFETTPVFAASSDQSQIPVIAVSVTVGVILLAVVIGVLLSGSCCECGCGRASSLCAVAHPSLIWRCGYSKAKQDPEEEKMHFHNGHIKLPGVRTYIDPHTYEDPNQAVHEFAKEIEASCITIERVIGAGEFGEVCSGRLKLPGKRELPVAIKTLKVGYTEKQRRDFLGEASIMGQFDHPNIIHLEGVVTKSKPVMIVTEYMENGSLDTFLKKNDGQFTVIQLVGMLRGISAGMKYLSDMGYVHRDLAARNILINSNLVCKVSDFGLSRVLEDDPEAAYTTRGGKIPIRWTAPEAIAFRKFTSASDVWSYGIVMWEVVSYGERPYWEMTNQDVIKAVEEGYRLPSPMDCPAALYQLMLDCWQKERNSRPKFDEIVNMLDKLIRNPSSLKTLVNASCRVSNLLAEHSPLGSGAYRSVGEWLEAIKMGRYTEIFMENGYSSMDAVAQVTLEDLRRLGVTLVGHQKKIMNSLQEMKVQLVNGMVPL
assay.procedure: radiometric filter-binding kinase assay, Kinase HotSpot
applied.conditions: compound 0.5 µM; ATP 10 µM
measurement.name: residual activity (%)
Write the number in % without appending the unit.

# count of solved cases: 3
{"columns": ["molecule", "residual activity [%]"],
 "data": [
  ["O=C1NC(=O)C(c2c[nH]c3ccccc23)=C1c1c[nH]c2ccccc12", 95.3],
  ["COc1cc2ncc(-c3ccccc3)nc2cc1OC", 99.9],
  ["CC(C)[C@H](CO)Nc1nc(Nc2cc(N)cc(Cl)c2)c2ncn(C(C)C)c2n1", 64]
]}

Q: Which residual activity value belongs to O=C1Nc2ccccc2/C1=C1\Nc2ccccc2\C1=N/O ?
Result: 86.5

Q: Which residual activity value belongs to O=C(Nc1cccc(Nc2cc(Nc3cccc(C(F)(F)F)c3)ncn2)c1)C1CC1 ?
Result: 106

Q: Which residual activity value belongs to COc1ccc(CNC(=O)Nc2ncc([N+](=O)[O-])s2)cc1 ?
Result: 117

Q: Which residual activity value belongs to Cn1cnc2cc3c(Nc4cccc(Br)c4)ncnc3cc21 ?
Result: 71.5

Q: Which residual activity value belongs to O=C(CCCc1ccc(-c2ccccc2F)cc1)Nc1ccc(O)cc1 ?
Result: 99

Q: Which residual activity value belongs to CCN(CC)CCCCN1c2ccccc2Oc2ccc(Cl)cc21 ?
Result: 109

###

target: SRPK2 (human)
assay.procedure: radiometric filter-binding kinase assay, Kinase HotSpot
applied.conditions: compound 0.5 µM; ATP 10 µM
measurement.name: residual activity (%)
Write the number in % without appending the unit.

# count of solved cases: 5
{"columns": ["entry.smiles", "measurement.name", "quantitative.readout"],
 "data": [
  ["CN(C)C[C@H]1CCn2c(c(C3=C(c4cn(C)c5ccccc45)C(=O)NC3=O)c3ccccc32)C1", "residual activity", 91.5],
  ["O=C1Cc2c([nH]c3ccc(Br)cc23)-c2ccccc2N1", "residual activity", 98.9],
  ["Oc1ccc(Nc2nc(-c3ccc(Cl)cc3)cs2)cc1", "residual activity", 104],
  ["COc1cc2ncnc(N3CCN(C(=O)Nc4ccc(Oc5ccccc5)cc4)CC3)c2cc1OC", "residual activity", 89.1],
  ["O=C1NC(=O)/C(=C\\c2ccc3nccnc3c2)S1", "residual activity", 98.2]
]}

Q: Which residual activity value belongs to Cn1nc2c3c(cccc31)C(=O)c1ccccc1-2 ?
Result: 97.2

Q: Which residual activity value belongs to Cc1nc2cc3nc(-c4cccs4)cnc3cc2n1C ?
Result: 104

Q: Which residual activity value belongs to CC(=O)O/N=C1\C(=C2\C(=O)Nc3cc(Br)ccc32)Nc2ccccc21 ?
Result: 96.6

Q: Which residual activity value belongs to CC(C)c1nn(-c2c(Cl)cccc2Cl)c2nc(Cc3ccc(OCCO)cc3)nc(O)c12 ?
Result: 89.2

Q: Which residual activity value belongs to O=C1NC(=O)C(c2c[nH]c3ccccc23)=C1c1c[nH]c2ccccc12 ?
Result: 84.3

Q: Which residual activity value belongs to O=C(Nc1cccc(Nc2cc(Nc3cccc(C(F)(F)F)c3)ncn2)c1)C1CC1 ?
Result: 92
